# Tested on: ECHCG: barnyardgrass (Echinochloa crus-galli)
# TEST_PROTOCOL: Post-Emergent Test I herbicidal activity
# Type: in vivo
# CONDITION_NOTES: post-emergence, 336 h, Table 3, 140 g ai/ha, read-out: Visual Growth Reduction (%)-14 Days after Application ECHCG
I'd be grateful if you could share measured pest or weed control at 140 g/ha for these entries.
Kindly answer with a numeric value in %, unit omitted.

**Query** Given COc1c(N)cc(-c2ccc(Cl)cc2)nc1C(=O)O , state its recorded pest or weed control at 140 g/ha.
**Result** 15

**Query** What value of pest or weed control at 140 g/ha has been recorded for this entry: COc1c(C(=O)O)nc(-c2ccc3c(c2)OCO3)c(F)c1N
**Result** 80

**Query** Please report the recorded pest or weed control at 140 g/ha for COC(=O)c1nc(-c2ccc(Cl)c(OC)c2F)c(F)c(N)c1OC .
**Result** 100

**Query** Please look up its pest or weed control at 140 g/ha: COc1c(C(=O)O)nc(-c2ccc(C(F)(F)F)cc2)c(F)c1N
**Result** 70

**Query** For the compound COC(=O)c1nc(-c2ccc(I)c(F)c2)c(F)c(N)c1OC , what pest or weed control at 140 g/ha is on record?
**Result** 60

**Query** For the compound COC(=O)c1nc(-c2ccc(Br)cc2F)c(F)c(N)c1OC , what pest or weed control at 140 g/ha is on record?
**Result** 90

**Query** Param item = COc1c(C(=O)O)nc(-c2ccc(I)cc2F)c(F)c1N ; retrieve measured pest or weed control at 140 g/ha.
**Result** 100

----------
For each of the molecules below, state its GR20 POLCO.
# System: POLCO: buckwheat, wild (Polygonum convolvulus)
# TEST_PROTOCOL: Post-Emergent Test I herbicidal activity
# Assay type: in vivo
# CONDITION_NOTES: Table 4, growth reduction of 20% of plant growth, 14 days after application, probit analysis

**Query** Quick check: GR20 POLCO of COc1c(N)cc(-c2ccc(Cl)cc2)nc1C(=O)O ?
**Result** <17.5 g ai/ha

**Query** GR20 POLCO lookup needed for COc1c(C(=O)O)nc(-c2ccc(Cl)cc2)c(F)c1N , thanks.
**Result** <8.75 g ai/ha

**Query** Which GR20 POLCO is reported for this molecule? COc1c(C(=O)O)nc(-c2ccc(Cl)c(OC)c2F)c(F)c1N
**Result** <8.75 g ai/ha

**Query** Reported GR20 POLCO, molecule COC(=O)c1nc(-c2ccc(Cl)cc2F)cc(N)c1OC : ____
**Result** 10.7 g ai/ha

**Query** Report GR20 POLCO for COC(=O)c1nc(Cl)cc(N)c1OC please.
**Result** <17.5 g ai/ha

----------
# Test system: ABUTH: velvetleaf (Abutilon theophrasti)
# TEST_PROTOCOL: Post-Emergent Test I herbicidal activity
# Type: in vivo
# CONDITION_NOTES: Table 4, growth reduction of 20% of plant growth, 14 days after application, probit analysis
Please respond with reported GR20 ABUTH for every item in the list.

**Query** What measured GR20 ABUTH goes with COc1c(N)cc(-c2ccc(Cl)cc2)nc1C(=O)O ?
**Result** <17.5 g ai/ha

**Query** Fill in: GR20 ABUTH of COC(=O)c1nc(-c2ccc(Cl)cc2F)cc(N)c1OC is ___
**Result** <8.75 g ai/ha

**Query** Can you look up the measured GR20 ABUTH of COC(=O)c1nc(Cl)cc(N)c1OC for me?
**Result** 10.5 g ai/ha

**Query** GR20 ABUTH for COc1c(C(=O)O)nc(-c2ccc(Cl)cc2)c(F)c1N ?
**Result** <8.75 g ai/ha

**Query** Form field: reported GR20 ABUTH of COc1c(C(=O)O)nc(-c2ccc(Cl)c(OC)c2F)c(F)c1N
**Result** <8.75 g ai/ha

----------
# System: CHEAL: lambsquarters (Chenopodium album)
# TEST_PROTOCOL: Post-Emergent Test I herbicidal activity
# Assay type: in vivo
# CONDITION_NOTES: Table 4, growth reduction of 50% of plant growth, 14 days after application, probit analysis
PROPERTY_MEASURED: GR50 CHEAL

**Query** I have this compound here, COc1c(C(=O)O)nc(-c2ccc(Cl)cc2)c(F)c1N [Compound 47] , and I need its recorded GR50 CHEAL.
**Result** <8.75 g ai/ha

**Query** Requested field: GR50 CHEAL. Item: COC(=O)c1nc(Cl)cc(N)c1OC [Compound 1]
**Result** <17.5 g ai/ha

**Query** Which value of GR50 CHEAL has been reported for COc1c(N)cc(-c2ccc(Cl)cc2)nc1C(=O)O [Compound 46] in the records?
**Result** <17.5 g ai/ha

**Query** Quick one: GR50 CHEAL for COC(=O)c1nc(-c2ccc(Cl)cc2F)cc(N)c1OC [Compound 6] ?
**Result** <8.75 g ai/ha

**Query** Endpoint output: GR50 CHEAL of COc1c(C(=O)O)nc(-c2ccc(Cl)c(OC)c2F)c(F)c1N [Compound 45] . Value?
**Result** <8.75 g ai/ha

----------
PROPERTY_MEASURED: melting point

**Query** Looking for the measured melting point of COc1c(C(=O)O)nc(-c2ccc(I)c(F)c2F)c(F)c1N , can you help?
**Result** 145 to 147 °C

**Query** # melting point lookup, item COC(=O)c1nc(-c2ccc(Cl)cc2)c(Cl)c(N)c1OC
**Result** 139 to 141 °C

**Query** Value lookup for melting point; key = COC(=O)c1nc(-c2ccc(F)cc2)c(F)c(N)c1OC
**Result** 141 to 143 °C

**Query** Entry under review: COC(=O)c1nc(-c2ccc(Cl)c(F)c2)c(F)c(N)c1SC . Reported melting point?
**Result** 125 to 126 °C

**Query** Quick one: melting point of COc1c(C(=O)O)nc(-c2ccc(I)cc2F)c(F)c1N ?
**Result** 143 to 145 °C

**Query** Given COC(=O)c1nc(-c2ccc(Cl)c(N(C)C)c2F)c(F)c(N)c1OC , state its recorded melting point.
**Result** 113 to 115 °C

**Query** What measured melting point goes with COc1c(C(=O)O)nc(-c2ccc(C(F)(F)F)nc2)c(F)c1N ?
**Result** 160 to 162 °C

**Query** Field request: melting point | item: COc1c(Cl)ccc(-c2cc(N)c(OC(F)F)c(C(=O)O)n2)c1F
**Result** 169 to 171 °C

**Query** What does the data say about its melting point? Entry: COC(=O)c1nc(-c2ccc(C(F)(F)F)c(F)c2F)c(F)c(N)c1OC
**Result** 139 to 141 °C

----------
I'd appreciate it if you could supply pest or weed control at 70 g/ha values for the items below.
# Tested on: ZEAMX: corn (Zea mays)
# TEST_PROTOCOL: Post-Emergent Test I herbicidal activity
# Format: in vivo
# CONDITION_NOTES: Zea mays, post-emergence, 336 h, Table 3, 70 g ai/ha, read-out: Visual Growth Reduction (%)-14 Days after Application ZEAMX
Write the value in % as a bare number.

**Query** Name the recorded pest or weed control at 70 g/ha for COC(=O)c1nc(-c2cc(F)c(Cl)cc2F)c(F)c(N)c1OC .
**Result** 75

**Query** Sample COc1c(C(=O)O)nc(-c2cc(F)c(Br)cc2F)c(F)c1N — what was its pest or weed control at 70 g/ha?
**Result** 70

**Query** Which measured pest or weed control at 70 g/ha value corresponds to COc1c(C(=O)O)nc(-c2cc(F)c(I)cc2F)c(F)c1N ?
**Result** 75

**Query** Record request: pest or weed control at 70 g/ha value, item COC(=O)c1nc(-c2ccc(Br)c(F)c2F)c(F)c(N)c1OC
**Result** 70

**Query** Could you share which pest or weed control at 70 g/ha value was measured for COc1c(C(=O)O)nc(Cl)c(F)c1N ?
**Result** 0

**Query** Item under review: COc1c(C(=O)O)nc(-c2cc(F)c(Cl)cc2F)c(F)c1N . Reported pest or weed control at 70 g/ha?
**Result** 75

**Query** Need pest or weed control at 70 g/ha of COc1ccc(-c2nc(C(=O)O)c(OC)c(N)c2F)cn1 , thanks.
**Result** 80

**Query** May I ask what pest or weed control at 70 g/ha has been recorded for COc1c(C(=O)O)nc(-c2ccc(I)c(F)c2F)c(F)c1N ?
**Result** 70

**Query** Could you share which pest or weed control at 70 g/ha value was measured for COc1c(C(=O)O)nc(-c2ccc(Cl)c(Cl)c2)c(F)c1N ?
**Result** 80

Source: patent US9518018B2
